Values compiled from ChEMBL document CHEMBL2062526.

# assay-comment: Cytotoxicity against human HepG2 cells after 72 hrs by MTT assay
# Format: cell-based
Threshold 2000 nM. CC50 at 72 h below it: fulfilled. CC50 at 72 h at it or above: not fulfilled.

Here's what some known entries look like.
Cc1nc2c(S(=O)(=O)c3ccccc3)cc3ccccc3c2s1 not fulfilled
COc1cc2cc(S(=O)(=O)c3ccc(Cl)cc3)c3nc(C)sc3c2cc1OC not fulfilled
Cc1ccc(S(=O)(=O)c2cc3ccccc3c3sc(C)nc23)cc1 not fulfilled
Cc1ccc(S(=O)(=O)c2cc3ccc(C)cc3c3sc(C)nc23)cc1 not fulfilled
Cc1nc2c(S(=O)(=O)c3ccc(Cl)cc3)cc3cc(F)ccc3c2s1 not fulfilled

Bench note: check whether Cc1nc2c(S(=O)(=O)c3ccc(Cl)cc3)c(N)c3cc(F)ccc3c2s1 shows CC50 at 72 h below 2000 nM
fulfilled

Bench note: check whether Cc1ccc(S(=O)(=O)c2c(N)c3cc(F)ccc3c3sc(C)nc23)cc1 shows CC50 at 72 h below 2000 nM
fulfilled

Bench note: check whether Cc1ccc2cc(S(=O)(=O)c3ccccc3)c3nc(C)sc3c2c1 shows CC50 at 72 h below 2000 nM
not fulfilled

Bench note: check whether Cc1nc2c(S(=O)(=O)c3ccccc3)c(N)c3cc(F)ccc3c2s1 shows CC50 at 72 h below 2000 nM
not fulfilled

Bench note: check whether Cc1ccc(S(=O)(=O)c2c(N)c3ccccc3c3sc(C)nc23)cc1 shows CC50 at 72 h below 2000 nM
fulfilled

---

# assay-comment: Cytotoxicity against human HepG2 cells after 72 hrs by MTT assay
# Assay type: cell-based
quantity: CC50 at 72 h

Let me know recorded CC50 at 72 h for COc1cc2cc(S(=O)(=O)c3ccccc3)c3nc(C)sc3c2cc1OC , thanks.
> 125 µM

Let me know recorded CC50 at 72 h for Cc1nc2c(S(=O)(=O)c3ccccc3)c(N)c3ccccc3c2s1 , thanks.
> 500 µM

Let me know recorded CC50 at 72 h for COc1cc2cc(S(=O)(=O)c3ccc(C)cc3)c3nc(C)sc3c2cc1OC , thanks.
> 125 µM
